# procedure-text: Mean residence time (last) in BALB/c mouse plasma at 100 mg/kg administered via oral gavage by LC-MS analysis
# Format: ADME, organism-based
measured-quantity: MRT last (h)
Kindly answer with a numeric value in h, unit omitted.

{"compound-structure-string": "CC1(C)CCC(NC(=O)c2cc3c(Cl)cc(Cl)cc3[nH]2)CC1", "measured-quantity": "MRT last", "result": 6.47}

Then there is this molecule:
Item C[C@@H]1[C@H]2C[C@@H](C[C@H]1NC(=O)c1cc3c(F)cc(F)cc3[nH]1)C2(C)C has what recorded MRT last? 7.28

---

# reported Tmax; entries follow
# procedure-text: Tmax in BALB/c mouse lung at 100 mg/kg administered via oral gavage after 0.25 to 24 hrs by LC-MS analysis
# Type: ADME, organism-based
Supply the numeric figure in h, leaving out any unit text.

{"compound-structure-string": "CC1(C)CCC(NC(=O)c2cc3c(Cl)cc(Cl)cc3[nH]2)CC1", "measured-quantity": "Tmax", "result-unit": "h", "result": 2}

--- query ---
What does the record list as Tmax for C[C@@H]1[C@H]2C[C@@H](C[C@H]1NC(=O)c1cc3c(F)cc(F)cc3[nH]1)C2(C)C ? 4

---

# Test system: Mycobacterium tuberculosis
# procedure-text: Antimycobacterial activity against Mycobacterium tuberculosis H37Rv grown on serum of 100 mg/kg, po treated BALB/c mouse for 30 to 120 mins assessed as reduction in bacterial growth followed by bacterial addition incubated for 7 days by alamar blue reagent based serum inhibition titration assay
# Format: functional, organism-based
The source made the active and inactive calls. The calls are words filed in the database; no cut-off is given here.
A correct response names exactly one class from active, inactive

{"compound-structure-string": "O=C(NC1CCC2(CCCCC2)CC1)c1cc2c(F)cc(F)cc2[nH]1", "class-assignment": "inactive"}
{"compound-structure-string": "O=C(NC1CCC2(CCCCC2)CC1)c1cc2c(Cl)cc(Cl)cc2[nH]1", "class-assignment": "inactive"}
{"compound-structure-string": "CC1(C)CCC(NC(=O)c2cc3c(Cl)cc(Cl)cc3[nH]2)CC1", "class-assignment": "active"}

Pending compound:
Lab log entry: O=C(NC12CC3CC(CC(C3)C1)C2)c1cc2c(Cl)cc(Cl)cc2[nH]1 — outcome as called in the assay? inactive

---

Recorded measurements of Tmax, one per entry
# procedure-text: Tmax in BALB/c mouse plasma at 100 mg/kg administered via oral gavage after 0.25 to 24 hrs by LC-MS analysis
# Assay type: ADME, organism-based
Please give a number only; it is taken to be in h.

{"compound-structure-string": "CC1(C)CCC(NC(=O)c2cc3c(Cl)cc(Cl)cc3[nH]2)CC1", "measured-quantity": "Tmax", "result-unit": "h", "result": 2}

# evaluate next
// returns reported Tmax for input C[C@@H]1[C@H]2C[C@@H](C[C@H]1NC(=O)c1cc3c(F)cc(F)cc3[nH]1)C2(C)C 4

---

Catalogue of Cmax readings, one per entry.
# procedure-text: Cmax in BALB/c mouse plasma at 100 mg/kg administered via oral gavage after 0.25 to 24 hrs by LC-MS analysis
# Assay type: ADME, organism-based
# Set-up: dose 100 mg/kg, route oral
Use ng/mL as the unit, but write only the number.

{"compound-structure-string": "CC1(C)CCC(NC(=O)c2cc3c(Cl)cc(Cl)cc3[nH]2)CC1", "result": 670}

Lab note: next compound to report on.
Entry C[C@@H]1[C@H]2C[C@@H](C[C@H]1NC(=O)c1cc3c(F)cc(F)cc3[nH]1)C2(C)C has what Cmax? 1710

---

# procedure-text: Cmax in BALB/c mouse lung at 100 mg/kg administered via oral gavage after 0.25 to 24 hrs by LC-MS analysis
# Assay type: ADME, organism-based
# Design: dose 100 mg/kg, route oral
measured-quantity: Cmax

{"compound-structure-string": "C[C@@H]1[C@H]2C[C@@H](C[C@H]1NC(=O)c1cc3c(F)cc(F)cc3[nH]1)C2(C)C", "result": "3500 ng/g"}

Now look at this one.
Look up Cmax for this molecule: CC1(C)CCC(NC(=O)c2cc3c(Cl)cc(Cl)cc3[nH]2)CC1 1300 ng/g

---

# procedure-text: Stability in rat hepatocytes assessed as compound remaining at 1 uM after 2 hrs
# Type: ADME, cell-based, Hepatocyte
# condition-details: read-out: Stability
measured-quantity: remaining at 2 h, 1 µM
Please provide the amount together with its unit, number first.

What remaining at 2 h, 1 µM value was documented for this compound, C[C@@H]1[C@H]2C[C@@H](C[C@H]1NC(=O)c1cc3c(F)cc(F)cc3[nH]1)C2(C)C ? 0.7%

---

# procedure-text: Stability in human liver microsomes assessed as compound remaining at 3 uM after 1 hr
# Assay type: ADME, Microsome
# condition-details: read-out: Stability
measured-quantity: remaining at 1 h, 3 µM (%)
# unit: % | format: bare number

// remaining at 1 h, 3 µM lookup, key: C[C@@H]1[C@H]2C[C@@H](C[C@H]1NC(=O)c1cc3c(F)cc(F)cc3[nH]1)C2(C)C 69.5

---

# procedure-text: Permeability across apical to basolateral side in human Caco2 cells
# Type: ADME, cell-based
# condition-details: Caco-2, read-out: permeability
measured-quantity: Papp A→B (×10⁻⁶ cm/s)
All answers are understood in ×10⁻⁶ cm/s, so give the number only.

Would you mind telling me what Papp A→B value was observed for C[C@@H]1[C@H]2C[C@@H](C[C@H]1NC(=O)c1cc3c(F)cc(F)cc3[nH]1)C2(C)C ? 0.19

---

Examples of molecules with documented MIC90 follow.
# Tested on: Mycobacterium tuberculosis H37Rv
# procedure-text: Inhibition of MmpL3 in clinical isolates of drug sensitive Mycobacterium tuberculosis H37Rv after 7 to 14 days by alamar blue assay
Respond with the bare value in µM.

Solved cases (3 shown):
{"molecule": "COc1cc(OC)c2cc(C(=O)NC3CCCCCC3)[nH]c2c1", "measured-quantity": "MIC90", "result": 3.2}
{"molecule": "Cc1cccc2[nH]c(C(=O)NC3CCCCCC3)cc12", "measured-quantity": "MIC90", "result": 0.93}
{"molecule": "C[C@@H]1[C@H]2C[C@@H](C[C@H]1NC(=O)c1cc3c(Cl)cc(Cl)cc3[nH]1)C2(C)C", "measured-quantity": "MIC90", "result": 0.021}

Find the recorded MIC90 belonging to Cc1ccc2cc(C(=O)NC3CCCCCCC3)[nH]c2c1 and report it. 0.11

Which MIC90 value belongs to Cc1ccc2[nH]c(C(=O)NC3CCCCCC3)cc2c1 ? 7.4

Can you look up the measured MIC90 of O=C(NC12CC3CC(CC(C3)C1)C2)c1cc2ccc(Br)cc2[nH]1 for me? 0.042

Value lookup for MIC90; key = Cc1cc(C)c2cc(CNC3CCCCCCC3)[nH]c2c1 0.31

Give its MIC90 value. Item: C[C@@H](NC(=O)c1cc2c(F)cc(F)cc2[nH]1)C1CCCCC1 13

Tell me the measured MIC90 of O=C(NC1CCCCCCC1)c1cc2ccc(Br)cc2[nH]1 , please. 0.09

Please give the measured MIC90 for this molecule: CN1C2CCCC1CC(NC(=O)c1cc3c(Cl)cc(Cl)cc3[nH]1)C2 (stereo not given) 10.9

Please give the measured MIC90 for this molecule: O=C(NC12CC3CC(CC(C3)C1)C2)c1cc2c(Cl)cc(Cl)cc2[nH]1 0.011

Could you share which MIC90 value was measured for O=C(NC1CCC2(CCCCC2)CC1)c1cc2c(Cl)cc(Cl)cc2[nH]1 ? 0.005

What value of MIC90 has been recorded for this entry: NNC(=O)c1ccncc1 0.29

Recorded MIC90 of C[C@@H]1[C@H]2C[C@@H](C[C@H]1NC(=O)c1cc3c(F)cc(F)cc3[nH]1)C2(C)C , please. 0.012

Given the molecule CC1(C)[C@@H]2CC[C@@H](CNC(=O)c3cc4c(Cl)cc(Cl)cc4[nH]3)[C@H]1C2 , what is its reported MIC90? 175

Query: MIC90; subject: Cc1ccc2[nH]c(C(=O)NC3CCCCCCC3)cc2c1 0.88

Name the recorded MIC90 for Cc1cc(C)c2[nH]c(C(=O)NC3CCCCCC3)cc2c1 . 3.5

I am curious: what MIC90 value has been reported for C[C@@H]1[C@@H](NC(=O)c2cc3c(F)cc(F)cc3[nH]2)C[C@H]2C[C@@H]1C2(C)C ? 0.19

Can you look up the measured MIC90 of O=C(N[C@@H]1C[C@H]2CC[C@@H]1C2)c1cc2c(Cl)cc(Cl)cc2[nH]1 (relative stereo) for me? 0.39

Given Cc1cc(C)c2cc(CNC(=O)C3CCCCCC3)[nH]c2c1 , state its recorded MIC90. 54

Name the recorded MIC90 for C[C@@H]1[C@H]2C[C@@H](C[C@H]1NC(=O)c1cc3ccc(Br)cc3[nH]1)C2(C)C . 0.01

Consider the molecule C[C@@H]1[C@@H](NC(=O)c2cc3c(Cl)cc(Cl)cc3[nH]2)C[C@H]2C[C@@H]1C2(C)C and give its measured MIC90. 0.086

Recorded values, source ChEMBL document CHEMBL4477209.
